- Test system: RXF 393
- METHOD_SUMMARY: NCI tumour cell line growth inhibition, 48 h
Active and inactive are the calls of the source. No stated cut-off is given here; in the data, active = GI50 up to about 1.1 µM and inactive = higher.
Classes used: active, inactive

# COMPOUND, DISCRETE_LABEL
rows = [
    ("CCOC(=O)C1C(c2ccc(Cl)cc2Cl)NC(c2ccc(C)cc2)C(C(=O)OC)S1(=O)=O (stereo not drawn)", "inactive"),
    ("COc1cc(NC(C)c2ccc3c(c2)OCCO3)cc(OC)c1OC (stereo not drawn)", "inactive"),
    ("C=C/C(C)=C/[C@H](C)C(=O)C[C@H](O)CC1CC(=O)NC(=O)C1", "inactive"),
    ("COC(=O)C1CC(C(=O)OC)c2nc3cc([N+](=O)[O-])ccc3nc21 (stereo not drawn)", "inactive"),
    ("COc1cccc(-c2cc(O)c3cc(C)cnc3n2)c1", "active"),
    ("CC(=O)OCC1OC(SC2=NC(=O)CS2)C(OC(C)=O)C(OC(C)=O)C1OC(C)=O (stereo not drawn)", "inactive"),
    ("N/C(=N\\O)N/N=C\\c1cc([N+](=O)[O-])cc([N+](=O)[O-])c1O", "inactive"),
    ("NC[C@H]1Nc2ccccc2[C@@H](O)C1O (stereo partly drawn)", "inactive"),
    ("COc1cc(OCc2nc3cc(C(F)(F)F)ccc3nc2-c2ccccc2)cc(OC)c1OC", "inactive"),
    ("CN(C(=O)c1ccc(OCCCC(=O)O)c(Cl)c1Cl)C1CCCC1", "inactive"),
    ("CC1(C)C(=NN=C(N)N)C(C)(C)C1=NN=C(N)N", "inactive"),
    ("c1ccc(-c2cc(-c3cc(-c4ccccc4)[nH]n3)[nH]n2)cc1", "inactive"),
    ("[O-][n+]1ccccc1Sc1nc(Sc2cccc[n+]2[O-])nc(Sc2cccc[n+]2[O-])n1", "active"),
    ("CCCC12Cc3c(OC)ccc(OC)c3CC(Cc3c(OC)ccc(OC)c31)C2=O (stereo not drawn)", "inactive"),
    ("COc1ccc(C2SC(=N)Nc3c2c(C)nn3C(=O)c2ccc(Cl)cc2)cc1 (stereo not drawn)", "inactive"),
    ("CCOC(=O)c1c(N2CCOCC2)[nH]c(=O)c(C(c2ccc(Cl)c([N+](=O)[O-])c2)c2c(O)c(C(=O)OCC)c(N3CCOCC3)[nH]c2=O)c1O", "inactive"),
    ("N#C/C(=C/c1ccc([N+](=O)[O-])o1)c1ccccc1", "inactive"),
    ("Cc1ccc(S(=O)(=O)c2ccc([N+](=O)[O-])o2)cc1", "inactive"),
    ("CN(Cc1cnc2nc(N)nc(N)c2n1)c1ccc(C(=O)NCCCC(=O)O)cc1", "inactive"),
    ("COC(=O)C(NC(=O)CSc1nnc(COc2ccc(Cl)cc2)n1-c1ccccc1)C(C)C (stereo not drawn)", "inactive"),
    ("CC(=O)N1C(Nc2cnc3ccccc3c2)CCN1c1ccccc1 (stereo not drawn)", "inactive"),
    ("O=S1(=O)c2cnccc2N=C(NCc2ccccc2)N1c1ccccc1", "inactive"),
    ("C1=C(c2ccccc2)Nc2nnnn2C1c1ccccc1 (stereo not drawn)", "inactive"),
    ("Oc1ncnc2c1nnn2CCCCCCCCCCCCn1nnc2c(O)ncnc21", "inactive"),
    ("O=C(CC1(O)C(=O)Nc2ccccc21)c1ccccc1O (stereo not drawn)", "inactive"),
    ("CNC(=O)OCC1=C(COC(=O)NC)C(C)N(c2ccccc2)C1 (stereo not drawn)", "inactive"),
    ("C[C@@H](c1ccccc1)N(CC#N)C1CCC[C@H]1O (stereo partly drawn)", "inactive"),
    ("Cc1ccc2oc(=O)c(C(=O)Nc3nc(C45CC6CC(CC(C6)C4)C5)cs3)cc2c1", "inactive"),
    ("CC(=O)c1cccc(NCn2nnc3ccccc32)c1", "inactive"),
    ("CSc1nc2c(ncn2C2OCC(O)C(O)C2O)c(=O)n1C (stereo not drawn)", "inactive"),
    ("Cc1ccc(NC2=NCCO2)c2c1CCC2", "inactive"),
    ("O=Cc1cc(C(=O)OCc2ccccc2)n(S(=O)(=O)c2ccccc2)c1", "inactive"),
    ("COC1/C=C\\C=C(/C)C(=O)NC2=CC(=O)C(O)=C(CC(C)CC(OC)C(O)C(C)/C=C(\\C)C1OC(N)=O)C2=O (stereo not drawn)", "active"),
    ("Cc1ccccc1NC(=S)N/N=C(/c1ccccc1)c1ccccn1", "active"),
    ("COc1cc(C2c3cc4c(cc3[C@@H](Nc3cccc(C(C)=O)c3)C3COC(=O)[C@H]23)OCO4)cc(OC)c1O (stereo partly drawn)", "active"),
    ("COC(=O)C1=C(C)NC2(O)C=CC(=O)C3C(=O)N(c4ccccc4)C(=O)C132 (stereo not drawn)", "inactive"),
    ("Clc1nc(Nc2nc3ccccc3[nH]2)nc(Cl)c1Cc1ccccc1", "inactive"),
    ("CC1CCC(O)C(C(O)CC2CC(=O)N(C)C(=O)C2)C1 (stereo not drawn)", "inactive"),
    ("C=C1C(=O)OC2C/C(C)=C/CC/C(C)=C/CCC3(COC(C)=O)OC3CC12 (stereo not drawn)", "inactive"),
    ("O=c1cnn(C2OC(CO)C(O)C2O)c(=S)[nH]1 (stereo not drawn)", "inactive"),
    ("CC1=NN(C(=O)c2ccncc2)C(=O)C1", "inactive"),
    ("CC1(Sc2ccccc2)CN(Cc2ccccc2)C1=O (stereo not drawn)", "inactive"),
    ("COc1cc2cc(C(=O)N3CC(CCl)c4c3cc(N(C)C)c3ccccc43)[nH]c2c(OC)c1OC (stereo not drawn)", "active"),
]

###

Listed next: entries and their corresponding GI50.
- Tested on: HCT-15

# MOLECULE, ASSAYED_TARGET, GI50
data = [
    ("S=P(c1ccccc1)(c1ccccc1)C1(C2(P(=S)(c3ccccc3)c3ccccc3)CC2)CC1", "HCT-15", "> 100 µM"),
    ("CNS(=O)(=O)NN(C)S(=O)(=O)c1ccc(OC)cc1", "HCT-15", "> 100 µM"),
    ("CCOC(=O)C(C)(c1c(C)[nH]c2ccccc12)c1c(C)[nH]c2ccccc12", "HCT-15", "15 µM"),
    ("O=C(NO)c1ccc(OCc2ccccc2)cc1", "HCT-15", "15 µM"),
    ("CC(C)Cn1cnc2c(SCc3ccc(Cl)cc3Cl)nc(N)nc21", "HCT-15", "16 µM"),
    ("NC1=C2C(Br)=CN([C@@H]3O[C@H](CO)[C@@H](O)[C@@H]3O)C2C(=O)N=N1 (some centres not stated)", "HCT-15", "1.25 µM"),
    ("COC(OC)c1cccc2c1C1(O)CCC3(CC21)OCCCCO3 (configuration not stated)", "HCT-15", "> 100 µM"),
    ("COc1cc2c(cc1OC)OC(c1c(OC)ccc(OC)c1O)CC2 (configuration not stated)", "HCT-15", "> 100 µM"),
    ("Cc1ccccc1NC(=S)N/N=C(/c1ccccc1)c1ccccn1", "HCT-15", "< 0.01 µM"),
    ("O=S(=O)(O)C(Cc1nc2ccccc2[nH]1)S(=O)(=O)OCCC1S(=O)(=O)OCCOS1(=O)=O (configuration not stated)", "HCT-15", "> 100 µM"),
    ("CN1C2C=C(c3ccccc3)CC1CC2 (configuration not stated)", "HCT-15", "> 100 µM"),
    ("O=c1cnn(C2OC(CO)C(O)C2O)c(=S)[nH]1 (configuration not stated)", "HCT-15", "2.09 µM"),
    ("CC1(C)O[C@@H]2C[C@H]3[C@@H]4C[C@H](F)C5=CC(=O)C=C[C@]5(C)[C@@]4(F)[C@@H](O)C[C@]3(C)[C@]2(C(=O)CO)O1 [FLUOCINOLONE ACETONIDE]", "HCT-15", "> 100 µM"),
    ("O=C(CN1CCOCC1)c1ccc2c(c1)oc(=O)n2CCN1CCCC1", "HCT-15", "> 100 µM"),
    ("CC1=NN(C(=O)c2ccncc2)C(=O)C1/N=N/c1ccc2ccccc2c1 (configuration not stated)", "HCT-15", "7.41 µM"),
    ("O=C(c1cc(=O)c2ccc(O)cc2o1)c1ccc(Cl)cc1Cl", "HCT-15", "4.63 µM"),
    ("NC(=S)N/N=C1\\CCc2ccccc2C1", "HCT-15", "> 100 µM"),
    ("c1ccc(-c2sc(-c3cccs3)cc2Cc2cccs2)cc1", "HCT-15", "> 10 µM"),
    ("Clc1ccc(OCc2nnc(CCCCCCCCc3nnc(COc4ccc(Cl)cc4Cl)n3Nc3ccccc3)n2Nc2ccccc2)c(Cl)c1", "HCT-15", "10.9 µM"),
    ("N#Cc1nc(Nc2ccc([N+](=O)[O-])cc2)sc1N", "HCT-15", "12.5 µM"),
    ("CSc1nc(-c2cc3c(c(SC)n2)CCC3)cc2c1CCC2", "HCT-15", "> 100 µM"),
    ("Cc1ccc(S(=O)(=O)c2c3nc4ccccc4nc3n3c2[nH]c2ccccc23)cc1", "HCT-15", "> 100 µM"),
    ("O=C1c2ccccc2-c2nnc(-c3ccc([N+](=O)[O-])cc3)cc21", "HCT-15", "> 10 µM"),
    ("N#CC(=N)c1ncn(CCO)c1NC(=O)C(F)(F)F", "HCT-15", "> 100 µM"),
    ("CC1=C(C(=O)NNC(=O)c2ccccc2)CC(C(=O)NNC(=O)c2ccccc2)=C(C)N1", "HCT-15", "> 100 µM"),
    ("Cc1noc2cccc(O)c12", "HCT-15", "> 100 µM"),
    ("CCSC1=N/C(=C\\c2ccco2)C(Nc2ccc(C)cc2)=N1", "HCT-15", "> 100 µM"),
    ("COc1ccc(/C=C2\\C[C@H]3[C@@H]4CC=C5C[C@@H](O)CC[C@]5(C)[C@H]4CC[C@]3(C)\\C2=N\\O)cc1", "HCT-15", "6 µM"),
    ("CCCCCN1C(=O)C(Cc2ccccc2)N=C(c2ccc(O)cc2)c2cc(Cl)ccc21 (configuration not stated)", "HCT-15", "7.67 µM"),
    ("CC(=O)NCC1(c2ccccc2)CCN(CC2COc3ccccc3O2)CC1 (configuration not stated)", "HCT-15", "> 100 µM"),
    ("Clc1ccc(Nc2nnc(CNc3ccc(-c4nnc(Nc5ccc(Cl)cc5)o4)cc3)o2)cc1", "HCT-15", "14.9 µM"),
    ("CCOC(=O)N/N=C(\\Cc1ccc([N+](=O)[O-])cc1)OCC", "HCT-15", "> 100 µM"),
    ("O=c1[nH][nH]c(=O)n1Cc1ccccc1", "HCT-15", "> 100 µM"),
    ("CN(C)CCCNC(=O)c1cc2/c(=C\\c3ccc(N(C)C)cc3)c3ccccc3n2[n+]1C", "HCT-15", "> 100 µM"),
    ("O=C(Cc1ccccc1)NNc1nc(NNC(=O)c2ccncc2)nc(Nc2ccccc2)n1", "HCT-15", "> 10 µM"),
    ("C[C@@H](O)CCC(=O)c1ccoc1", "HCT-15", "> 100 µM"),
    ("COc1ccc(C(=O)C2CCC(C(=O)O)C2)cc1 (configuration not stated)", "HCT-15", "> 100 µM"),
    ("CC(CCc1nc2ccccc2s1)(c1ccc(O)cc1)c1ccc(O)cc1", "HCT-15", "18.4 µM"),
    ("COc1ccc([C@@]23OC[C@@H]4[C@@H](OC[C@@H]42)c2cc(OC)c(OC)cc23)cc1OC", "HCT-15", "> 100 µM"),
    ("CC(C)[Si](OC1=C(C(=O)Nc2ccccc2Cl)CCCCC1)(C(C)C)C(C)C", "HCT-15", "> 100 µM"),
    ("c1ccc2c(c1)cc1c3[nH]c4ccccc4c3ccn21", "HCT-15", "> 10 µM"),
    ("CC(O)(C(=O)N(O)c1ccc(Cl)cc1)c1ccc(Cl)cc1 (configuration not stated)", "HCT-15", "19.2 µM"),
]
